# target-of-assay: BTK (Homo sapiens, UniProt Q06187)
# Construct: purchased Reaction Biology Corporation
# Sequence (Q06187 whole entry): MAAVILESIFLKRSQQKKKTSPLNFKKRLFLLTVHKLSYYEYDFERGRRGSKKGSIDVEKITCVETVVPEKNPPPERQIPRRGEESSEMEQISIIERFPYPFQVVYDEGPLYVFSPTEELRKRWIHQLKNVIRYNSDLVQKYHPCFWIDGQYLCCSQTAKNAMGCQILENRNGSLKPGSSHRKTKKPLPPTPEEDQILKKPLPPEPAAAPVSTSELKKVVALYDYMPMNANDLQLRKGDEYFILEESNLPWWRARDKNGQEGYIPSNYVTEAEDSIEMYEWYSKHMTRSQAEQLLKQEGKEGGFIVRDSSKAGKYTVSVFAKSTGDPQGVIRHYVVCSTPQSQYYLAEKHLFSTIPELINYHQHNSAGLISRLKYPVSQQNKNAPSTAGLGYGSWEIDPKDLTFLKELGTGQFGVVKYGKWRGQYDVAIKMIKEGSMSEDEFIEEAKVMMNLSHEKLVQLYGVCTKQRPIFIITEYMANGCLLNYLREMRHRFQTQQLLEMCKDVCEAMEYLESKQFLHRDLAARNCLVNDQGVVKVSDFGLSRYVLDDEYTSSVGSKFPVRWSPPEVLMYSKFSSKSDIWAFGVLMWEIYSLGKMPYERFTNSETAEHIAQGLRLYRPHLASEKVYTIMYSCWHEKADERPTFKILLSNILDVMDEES
# assay-info: BTK kinase assay (HotSpot, 33P ATP)
# Format: biochemical
# measurement-context: 0.01 μM compound, 10 μM ATP
readout-type: BTK @ 0.01 μM (% Inh)

>>> result_value("Nc1ncnc2c1c(-c1cc(O)c(F)c(F)c1)c(F)n2C1Cc2ccccc2C1 [compound 136]")
"72.51 % Inh"
>>> result_value("Nc1ncnc2c1c(-c1cc(O)c(F)c(F)c1)nn2C1CCc2ccccc2C1 (centres unmarked) [compound 119]")
"21.71 % Inh"
>>> result_value("N#Cc1c(-c2cc(O)c(F)c(F)c2)c2c(N)ncnc2n1C1Cc2ccccc2C1 [compound 135]")
"51.3 % Inh"
>>> result_value("Cn1ncc2c(-c3nn(C4Cc5ccccc5C4)c4ncnc(N)c34)cccc21 [Compound No. 98]")
"8.24 % Inh"
>>> result_value("Nc1ncnc2c1c(-c1cc(O)c(F)c(Cl)c1)cn2C1Cc2ccccc2C1 [compound 110]")
"55.15 % Inh"
